system: E. coli; assay: Antimicrobial activity of soluble oligopeptides, microtiter growth inhibition (MIC); format: cell-based; details: soluble peptide, LB broth, 37° C.
Where a SMILES comes first, the peptide text is derived from it.
MEASURE_NAME: Minimal Inhibitory Concentration E. coli (µg/mL)
Express the result in µg/mL but write the number alone.

Inquiry: Using the record for CC(C)C[C@H](NC(=O)[C@H](CCCCN)NC(=O)[C@H](CC(C)C)NC(=O)[C@H](CC(C)C)NC(=O)[C@H](CCCCN)NC(=O)[C@H](CCCCN)NC(=O)[C@H](CC(C)C)NC(=O)[C@H](CC(C)C)NC(=O)[C@H](CCCCN)NC(=O)[C@H](CC(C)C)NC(=O)[C@H](CC(C)C)NC(=O)[C@H](CCCCN)NC(=O)[C@H](CCCCN)NC(=O)[C@H](CC(C)C)NC(=O)CNC(=O)CNC(=O)[C@@H](N)CCCCN)C(=O)O [Formula III, KGGLKKLLKLLKKLLKL] (H-KGGLKKLLKLLKKLLKL-OH) , report its Minimal Inhibitory Concentration E. coli.
Reply text: 7.8

###

Would you mind telling me the reported Minimal Inhibitory Concentration E. coli of each entry?
test system: E. coli; experiment: Antimicrobial activity of soluble oligopeptides, microtiter growth inhibition (MIC); assay type: cell-based; conditions: soluble peptide, LB broth, 37° C.
Where a SMILES comes first, the peptide text is derived from it.
Express the result in µg/mL but write the number alone.

Inquiry: Give recorded Minimal Inhibitory Concentration E. coli with E. coli for the following compound: CC(C)C[C@H](NC(=O)[C@H](CCCCN)NC(=O)[C@H](CC(C)C)NC(=O)[C@H](CC(C)C)NC(=O)[C@H](CCCCN)NC(=O)[C@H](CCCCN)NC(=O)[C@H](CC(C)C)NC(=O)[C@H](CC(C)C)NC(=O)[C@H](CCCCN)NC(=O)[C@H](CC(C)C)NC(=O)[C@H](CC(C)C)NC(=O)[C@H](CCCCN)NC(=O)[C@H](CCCCN)NC(=O)[C@H](CC(C)C)NC(=O)CNC(=O)[C@@H](N)CCCCN)C(=O)O [Formula II, KGLKKLLKLLKKLLKL] (H-KGLKKLLKLLKKLLKL-OH)
Reply text: 7.8

Inquiry: Param item: CC(C)C[C@H](NC(=O)[C@H](CCCCN)NC(=O)[C@H](CC(C)C)NC(=O)[C@H](CC(C)C)NC(=O)[C@H](CCCCN)NC(=O)[C@H](CCCCN)NC(=O)[C@H](CC(C)C)NC(=O)[C@H](CC(C)C)NC(=O)[C@H](CCCCN)NC(=O)[C@H](CC(C)C)NC(=O)[C@H](CC(C)C)NC(=O)[C@H](CCCCN)NC(=O)[C@H](CCCCN)NC(=O)[C@@H](N)CC(C)C)C(=O)O [Formula I] (H-LKKLLKLLKKLLKL-OH)
Reply text: 15.6

Inquiry: Param item: CC(C)C[C@H](NC(=O)[C@H](CCCCN)NC(=O)[C@H](CC(C)C)NC(=O)[C@H](CC(C)C)NC(=O)[C@H](CCCCN)NC(=O)[C@H](CCCCN)NC(=O)[C@H](CC(C)C)NC(=O)[C@H](CC(C)C)NC(=O)[C@H](CCCCN)NC(=O)[C@H](CC(C)C)NC(=O)[C@H](CC(C)C)NC(=O)[C@H](CCCCN)NC(=O)[C@H](CCCCN)NC(=O)[C@H](CC(C)C)NC(=O)CNC(=O)CNC(=O)CNC(=O)[C@@H](N)CCCCN)C(=O)O [Formula IV, KGGGLKKLLKLLKKLLKL] (H-KGGGLKKLLKLLKKLLKL-OH)
Reply text: 7.8
